Each recorded value in this set is attributed to patent US7301022B2.

Parameter: melting point. Scope: all listed entries.

Below: 3 compounds and their reported melting point.
Compound | melting point
CC(=O)Nc1nc2c(Oc3cc(-c4ccc(C(F)(F)F)cc4NCc4cncn4Cc4ccccc4)ncn3)cccc2s1 | 264 to 264.1 °C
CC(=O)Nc1nc2c(Oc3cc(-c4ccc(C(F)(F)F)cc4NC(=O)C4CCCCN4CC(C)C)ncn3)cccc2s1 (stereo not shown) | 153.4 to 154.9 °C
CC(=O)Nc1nc2c(Oc3cc(-c4ccc(C(F)(F)F)cc4NC(=O)C4(C)CCCCN4)ncn3)cccc2s1 (stereo not shown) | 146.4 to 148.8 °C

Next:
Input line: Supply measured melting point of `CC(=O)Nc1nc2c(Oc3cc(-c4ccc(C(F)(F)F)nc4NC[C@@H]4CCCN4CC(C)C)ncn3)cccc2s1` in your reply.
Output line: 105.8 to 107.3 °C

====

Counter-ions that a name gives are not always drawn.
Reported property: melting point

Input line: Supply measured melting point of CC(=O)Nc1nc2c(Oc3cc(-c4ccc(C(F)(F)F)cc4NC(=O)C4(C)CCCCN4CC(C)C)ncn3)cccc2s1 (stereo not drawn) (as salt: trifluoroacetic acid salt) in your reply.
Output line: < 80 °C

Input line: Supply measured melting point of CC(C)CN1CCCCC1C(=O)Nc1cc(C(F)(F)F)ccc1-c1cc(Oc2cccc3[nH]c(=O)c(N)nc23)ncn1 (stereo not drawn) in your reply.
Output line: > 250 °C

Input line: Supply measured melting point of CC(=O)Nc1nc2c(Oc3cc(-c4ccc(C(F)(F)F)cc4NC(=O)C4CCCCN4C(C)C)ncn3)cccc2s1 (stereo not drawn) in your reply.
Output line: 260 °C (dec.)

====

Where a name gives a salt, the structure may show the parent alone.
Reported property: melting point

Below: 6 compounds and their reported melting point.
Compound | Reported property | Assay result
CC(C)CN1CCCCC1C(C)(C)Nc1nc(C(F)(F)F)ccc1-c1cc(Oc2cccc3sc(N)nc23)ncn1 (stereo not shown) | melting point | 166 to 170 °C
CC(C)CN1CCC[C@H]1CNc1nc(C(F)(F)F)ccc1-c1cc(Oc2cccc3sc(N)nc23)ncn1 | melting point | 198 °C (dec.)
CC1(C)CC(Nc2nc(C(F)(F)F)ccc2-c2cc(Oc3cccc4sc(N)nc34)ncn2)CC(C)(C)N1 (as salt: trifluoroacetic acid salt) | melting point | 264 to 265.1 °C
CC(=O)Nc1nc2c(Oc3cc(-c4ccc(C(F)(F)F)nc4N(C)CC4CCCCN4CC(C)C)ncn3)cccc2s1 (stereo not shown) | melting point | 123.2 to 125.4 °C
CC(=O)Nc1nc2c(Oc3cc(-c4ccc(C(F)(F)F)nc4NC4CCN(C(C)C)C4)ncn3)cccc2s1 (stereo not shown) | melting point | 140 to 141 °C
CC(=O)Nc1nc2c(Oc3cc(-c4ccc(C(F)(F)F)nc4NC4CCN(CC(C)C)C4)ncn3)cccc2s1 (stereo not shown) | melting point | 138 to 139 °C

Next:
Input line: Supply measured melting point of CC(=O)Nc1nc2c(Oc3cc(-c4ccc(C(F)(F)F)nc4NCC4CCCCN4C(C)C)ncn3)cccc2s1 (stereo not shown) in your reply.
Output line: 159.3 to 162 °C

====

Counter-ions that a name gives are not always drawn.
Reported property: melting point

Below: 4 compounds and their reported melting point.
Compound | melting point
CC(=O)Nc1nc2c(Oc3cc(-c4ccc(C(F)(F)F)nc4NCC4CCCCN4CC(C)C)ncn3)cccc2s1 (racemic) | 121.7 to 121.9 °C
CC(=O)Nc1nc2c(Oc3cc(-c4ccc(C(F)(F)F)nc4NC4CC(C)(C)NC(C)(C)C4)ncn3)cccc2s1 (as salt: trifluoroacetic acid salt) | 253.4 to 254.1 °C
CC(=O)Nc1nc2c(Oc3cc(-c4ccc(C(F)(F)F)cc4NCc4cncn4C)ncn3)cccc2s1 | 263 to 265.2 °C
CC(C)CN1CCCCC1C(=O)Nc1cc(C(F)(F)F)ccc1-c1cc(Oc2cccc3ccc(N)nc23)ncn1 (stereo not shown) | 111.1 to 113.9 °C

Input line: Supply measured melting point of CC(C)N1CCCCC1CNc1nc(C(F)(F)F)ccc1-c1cc(Oc2cccc3sc(N)nc23)ncn1 (stereo not shown) in your reply.
Output line: 211.3 to 213 °C

Input line: Supply measured melting point of CC(=O)Nc1nc2c(Oc3cc(-c4ccc(C(F)(F)F)cc4NC(=O)C4CCCCN4CC4CC4)ncn3)cccc2s1 (stereo not shown) in your reply.
Output line: 212.3 to 213.5 °C

Input line: Supply measured melting point of CC1CC[C@@H](C(=O)Nc2cc(C(F)(F)F)ccc2-c2cc(Oc3cccc4ccc(N)nc34)ncn2)N1 (mixture of isomers) in your reply.
Output line: 162.9 to 164 °C
